B1: glmS ribozyme (parent)
chain: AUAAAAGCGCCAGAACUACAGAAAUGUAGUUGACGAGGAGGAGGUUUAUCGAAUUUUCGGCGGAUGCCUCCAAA

# Variants of: B1
# ASSAY_EXPLANATION: self-cleavage kobs at 10000 uM GlcN6P; higher = faster cleavage; RNA array
# MEASUREMENT_SETUP: with glucosamine-6-phosphate
Variants at the floor of the assay were thinned out.
OBSERVED_PROPERTY: self-cleavage kobs at 10000 uM GlcN6P (s⁻¹)
Express your answer in s⁻¹, writing the number without its unit.

Req: Returns the measured self-cleavage kobs at 10000 uM GlcN6P for the input variant. Input: U65G C67A
Resp: 0.00417

Req: Would you kindly repeat that for U45A C58G ?
Resp: 0.000222

Req: Would you kindly repeat that for C16A U31A ?
Resp: 0.00119

Req: Would you kindly repeat that for G13U C16U C70U ?
Resp: 0.00165

Req: Would you kindly repeat that for U45C U46A ?
Resp: 5.25e-05

Req: Would you kindly repeat that for U47A U65C ?
Resp: 0.000645

Req: Would you kindly repeat that for A15C U57A ?
Resp: 6.22e-05

Req: Would you kindly repeat that for A15U G40U U54A ?
Resp: 7.33e-05

Req: Would you kindly repeat that for U47C C67U ?
Resp: 0.000358

Req: Would you kindly repeat that for A15C G32U G40U ?
Resp: 5.23e-05

Req: Would you kindly repeat that for C16U G37A U65G ?
Resp: 0.000183

Req: Would you kindly repeat that for A14G A64G ?
Resp: 0.0677

Req: Would you kindly repeat that for G21U G40C ?
Resp: 0.00248

Req: Would you kindly repeat that for G29A G32A C71A ?
Resp: 0.000201

Req: Would you kindly repeat that for A12C A53U ?
Resp: 0.0121

Req: Would you kindly repeat that for G13C U31C C71U ?
Resp: 0.00114

Req: Would you kindly repeat that for G32U U55A ?
Resp: 0.00102

Req: Would you kindly repeat that for U55G A64C ?
Resp: 0.000143

Req: Would you kindly repeat that for G44A A53C ?
Resp: 0.0001

Req: Would you kindly repeat that for A12U C71U ?
Resp: 0.0826

Req: Would you kindly repeat that for A14U G35U U69G ?
Resp: 6.56e-05

Req: Would you kindly repeat that for G29U A53U ?
Resp: 0.00266

Req: Would you kindly repeat that for U55A U69G ?
Resp: 5.04e-05

Req: Would you kindly repeat that for A12U A14G U57A ?
Resp: 0.000643

Req: Would you kindly repeat that for U31C U46C ?
Resp: 0.000295

Req: Would you kindly repeat that for U31A A39U ?
Resp: 0.00871

Req: Would you kindly repeat that for G9A U55A ?
Resp: 2.18e-05

Req: Would you kindly repeat that for G13U U56A ?
Resp: 0.000422

Req: Would you kindly repeat that for A15G C16G ?
Resp: 0.00391
